Recorded growth inhibition, one value per entry.
method: NCI Yeast Anticancer Drug Screen. Data for the rad50 strain (AID 155);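 also: 0% = growth of vehicle-only cultures of the same strain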
condition_details: S. cerevisiae rad50 strain growth inhibition; at 33.0 µM; hits give high values
The panel holds about 79,000 compounds, 15% with a hit somewhere; the sample as a whole holds those more often.
Numbers only; they are read as %.

- O=S(=O)(c1cc(Cl)ccc1O)c1cc(Cl)ccc1O: 97

Which growth inhibition is listed for Nc1ccc(S(=O)(=O)Nc2ccc(Nc3c4ccccc4nc4ccccc34)cc2)cc1 ?
93

Which growth inhibition is listed for S=c1nc(Cl)cc2[nH]c(Cl)cn12 ?
73

====

method: NCI Yeast Anticancer Drug Screen. Data for the bub3 strain (AID 167)
condition_details: S. cerevisiae bub3 mutant strain, at 50.0 µM
Compounds without any hit were thinned out: in the full panel of roughly 79,000, 15% have a hit. Activity calls are given as the source filed them. Rule as the data show it: active = growth inhibition above about 70%; inactive = the rest.
Log the outcome using a class from true (1) = active, false (0) = inactive

Worked set:
• CC(=O)N1C(=O)/C(=C\C(=O)c2ccc([N+](=O)[O-])cc2)c2ccccc21 = true (1)
• CCC(=O)Oc1ccc(/C=N/NC(N)=S)nc1 = false (0)
• O=C(/C=C\c1ccc([N+](=O)[O-])o1)Nc1ccc(Cl)cc1 = false (0)
• Cc1cccc(/C=N\NC(=S)N2CCCCC2)n1 = true (1)
• Clc1nc(C(Cl)Cl)nc2sc3c(c12)CCCC3 = true (1)

Kindly consider the entry below.
Which outcome did this test record for the compound CCNc1ccc2c(c1)C(=O)N(OS(C)(=O)=O)C2=O ?
false (0)
